Assay: Cytotoxic Profiling in HEK 293 Cell Line of Diverse Libraries Using Quantitative High-Throughput Screening; further: nearly all actives have a fitted effect of over 60% in size; further: potency means the concentration at half of the fitted maximal effect
Conditions: HEK 293 viability, ATP luminescence (CellTiter-Glo), 48-72 h; series mostly up to 115 µM
The campaign covered roughly 94,000 compounds. About 6,200 (6.6%) were called active. Inconclusive results (about 31%) are left out. This excerpt belongs to a sample that is enriched for actives.
VALUE_TYPE: Potency

As a guide, the following entries are already answered.
Can you share its Potency? I mean this molecule: O=C(NCCc1ccccc1)c1nc2sccn2c1-c1ccccc1
inactive

Consider the molecule shown here: COc1ccccc1-c1cccc(CN2CCCC(C(=O)NCC3CC3)C2)c1 (stereo not given) What is its recorded Potency?
39.8 µM (active)

Please report the recorded Potency for O=C(c1cccs1)C1CCCN(C(=O)COc2ccc(F)cc2F)C1 (stereo not given) .
inactive

Bench note: what Potency did CCC(=O)N1CCC(c2nc(C3CCOCC3)no2)C1 (stereo not given) show?
inactive

Sample CCn1c(C2CCCNC2)nn(Cc2ccc(C(=O)NC)o2)c1=O (stereo not given) — what was its Potency?
inactive

# input molecule: CCn1nc(C)cc1C(=O)N1C[C@H]2OC(=O)N(CCCN3CCOCC3)[C@H]2C1 ; wanted: its Potency
inactive

Sample Cc1noc(C)c1S(=O)(=O)N[C@@H]1C[C@H](Cn2cc(C3CC3)nn2)[C@@H](O)[C@H]1O — what was its Potency?
inactive

Need Potency of O=C(C1CCCN(Cc2cccc(-c3ccc(F)cc3F)c2)C1)N1CCCCC1 (stereo not given) , thanks.
31.6 µM (active)

What value of Potency has been recorded for this entry: COc1ccc(CN2CCC3(COc4ncccc4[S+](=O)([O-])N3)C2)cc1 (stereo not given)
inactive

Okay, next one:
So what does the record say about Potency for CN(C)C(=O)N1CCCC(C(=O)N2CCC(N3Cc4cccn4C3=O)CC2)C1 (stereo not given) ?
inactive
